test: Solubility in water; type: physicochemical
EXPERIMENTAL ENDPOINT: solubility in water

| COMPOUND | RESULT VALUE |
| --- | --- |
| COc1cc(Nc2ncc3c(n2)-c2ccc(Cl)cc2C(c2c(F)cccc2OC)=NC3)ccc1C(=O)O [Form 2] | about 8 mg/mL |
| COc1cc(Nc2ncc3c(n2)-c2ccc(Cl)cc2C(c2c(F)cccc2OC)=NC3)ccc1C(=O)O [Form 24] | about 8 mg/mL |
